systemName: T1, TNFR1 (Homo sapiens, UniProt P19438)
T1 chain: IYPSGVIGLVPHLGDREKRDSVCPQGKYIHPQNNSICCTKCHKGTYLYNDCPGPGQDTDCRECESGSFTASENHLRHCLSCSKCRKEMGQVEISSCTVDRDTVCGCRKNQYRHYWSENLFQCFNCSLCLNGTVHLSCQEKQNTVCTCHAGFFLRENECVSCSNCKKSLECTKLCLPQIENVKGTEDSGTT
assayNotes: yeast display SC50
measurementKind: apparent Kd (screen) (nM)

Previously resolved entries follow.
binder: K48A (designed binder) SMEEEVEKAAKEYEKKKKEAIEKHLEKLKAKDKEAAERFLKELEEAAAEYAKDEAKTMSEEEAKRRAKKYKEKVLLSELSEEEQKEIKEAEEKLVRTILKYVEEAAK
measurementUnits: nM
testResult: 0.446
--
binder: K16P (designed binder) SMEEEVEKAAKEYEKPKKEAIEKHLEKLKAKDKEAAERFLKELEEAAKEYAKDEAKTMSEEEAKRRAKKYKEKVLLSELSEEEQKEIKEAEEKLVRTILKYVEEAAK
measurementUnits: nM
testResult: 18.3
--
binder: K8E (designed binder) SMEEEVEEAAKEYEKKKKEAIEKHLEKLKAKDKEAAERFLKELEEAAKEYAKDEAKTMSEEEAKRRAKKYKEKVLLSELSEEEQKEIKEAEEKLVRTILKYVEEAAK
measurementUnits: nM
testResult: 1.54
--
binder: T57S (designed binder) SMEEEVEKAAKEYEKKKKEAIEKHLEKLKAKDKEAAERFLKELEEAAKEYAKDEAKSMSEEEAKRRAKKYKEKVLLSELSEEEQKEIKEAEEKLVRTILKYVEEAAK
measurementUnits: nM
testResult: 1.27
--
binder: Q84Y (designed binder) SMEEEVEKAAKEYEKKKKEAIEKHLEKLKAKDKEAAERFLKELEEAAKEYAKDEAKTMSEEEAKRRAKKYKEKVLLSELSEEEYKEIKEAEEKLVRTILKYVEEAAK
measurementUnits: nM
testResult: 13.8

a: K73F (designed binder) SMEEEVEKAAKEYEKKKKEAIEKHLEKLKAKDKEAAERFLKELEEAAKEYAKDEAKTMSEEEAKRRAKKYKEFVLLSELSEEEQKEIKEAEEKLVRTILKYVEEAAK
b: A36E (designed binder) SMEEEVEKAAKEYEKKKKEAIEKHLEKLKAKDKEAEERFLKELEEAAKEYAKDEAKTMSEEEAKRRAKKYKEKVLLSELSEEEQKEIKEAEEKLVRTILKYVEEAAK
# input Consider a and b . Which of these has its apparent Kd (screen) at a higher number? API: response body contains the label of the selected item.
# output a
(a: 15.2 nM, b: 0.446 nM)
